# assay notes: Stability in human HeLa cells at 200 uM after 12 hrs by HPLC analysis (reference value: 100%)
# Assay type: ADME, cell-based
# reported conditions: read-out: Stability
property: remaining at 12 h, 200 µM (%)
Numeric answer only, unit % assumed.

query: Reported remaining at 12 h, 200 µM, compound `O=C(CCCC[C@@H]1SC[C@@H]2NC(=O)N[C@@H]21)NCCOCCOCCNC(=O)COc1ccc(-c2cc(=O)c3c(O)c(O)c(O)cc3o2)cc1` : ____
result: 36

query: Also, `O=C1N[C@H]2[C@H](CS[C@H]2CCCCC(=O)Oc2ccc(-c3cc(=O)c4c(O)c(O)c(O)cc4o3)cc2)N1` please.
result: 37

Recorded values, source ChEMBL document CHEMBL4177700.
